test: Leishmania major promastigote growth inhibition, primary screen (AID 1063); conditions: Leishmania major promastigotes, resazurin fluorescence viability; at 10 µM; active compounds read high;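 note: promastigotes grown with compound for 44 hours at 28 °C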
In all, about 200,000 compounds went through this assay and about 18,000 (9%) were called active. Only a selection was taken, and actives are over-represented in it overall.
assay.readout: inhibition (%)
Write the value in % as a bare number.

Task: Fill blank: measured inhibition of the molecule COc1ccc(CNC(=O)CN2CCC(n3nnc4cc(F)ccc43)CC2)cc1 is ____.
Result: 2.66

Task: Fill blank: measured inhibition of the molecule N#Cc1c(N)nc2c(c1N)CC(C(F)(F)F)O2 (stereo unspecified) is ____.
Result: 1.43

Task: Fill blank: measured inhibition of the molecule C=CCN1C(=O)C(O)(CC(=O)c2ccccn2)c2ccccc21 (stereo unspecified) is ____.
Result: 3.64

Task: Fill blank: measured inhibition of the molecule CC(C)(O)C#Cc1ncc(C(F)(F)F)cc1Cl is ____.
Result: -3.82

Task: Fill blank: measured inhibition of the molecule Cc1cc(CNC(=O)c2cccc([N+](=O)[O-])c2)c2ccccc2n1 is ____.
Result: 9.74

Task: Fill blank: measured inhibition of the molecule N#Cc1c(NC(=O)C2CC(Cl)=CCC2C(=O)O)sc2c1CCCCC2 (stereo unspecified) is ____.
Result: -8.36
